- STUDY_SYSTEM: T1, FRET substrate GGGLG
- T1 chain: GGGLG
METRIC: Specific activity (U/mg)
Only the number, expressed in U/mg, is required.

Some proteins with recorded Specific activity (U/mg):
PROTEIN	Specific activity (U/mg)
Las A protein (LasA or LAS) (protein) APPSNLMQLPWRQGYSWQPNGAHSNTGSGYPYSSFDASYDWPRWGSATYSVVAAHAGTVRVLSRCQVRVTHPSGWATNYYHMDQIQVSNGQQVSADTKLGVYAGNINTALCEGGSSTGPHLHFSLLYNGAFVSLQGASFGPYRINVGTSNYDNDCRRYYFYNQSAGTTHCAFRPLYNPGLAL	10
β-lytic metalloprotease (beta-lytic metallopeptidase; BLP) (protein) SPNGLLQFPFPRGASWHVGGAHTNTGSGNYPMSSLDMSRGGGWGSNQNGNWVSASAAGSFKRHSSCFAEIVHTGGWSTTYYHLMNIQYNTGANVSMNTAIANPANTQAQALCNGGQSTGPHEHWSLKQNGSFYHLNGTYLSGYRITATGSSYDTNCSRFYLTKNGQNYCYGYYVNPGPN	3
Aeromonas hydrophila proteinase (AhP) (protein) AGGQFQLPWRQGYSWKANGAHSHTGSGYPYSSIDVSYDWPGWGGATYTVTAANSGTVTVFSRCQVRVTATNGWATNYYHMSGISVRSGDYVAADTPIGTYASNRNEALCEGGSSTGPHLHFSLLYNGVFQSLQGQRLSSYAVNVGASNYDDNCNRFWLYNQRNGQRYCAWQPLYNNGID	31

Continue with the protein presented below.
Enquiry: Which measured Specific activity (U/mg) value corresponds to ALE-1 glycylglycine endopeptidase (ALE-1) (protein) STKVDAPKVEQEAPAKADAPKVEQEAPAKADAPKVEQEAPAKVDAPKVEQEAPAKVDAPKVEQEAPAKADAPKVEQKRTFVREAAQSNHSASWLNNYKKGYGYGPYPLGINGGNHYGVDFFMNVGTPVRAISDGKIVEAGWTNYGGGNEIGLVENDGVHRQWYMHLSKFNVKVGDRVKAGQIIGWSGSTGYSTAPHLHFQRMTNSFSNNTAQDPMPFLKSAGYGSNSTSSSNNNGYKTNKYGTLYKSESASFTANTDIITRLTGPFRSMPQSGVLRKGLTIKYDEVMKQDGHVWVGYNTNSGKRVYLPVRTWNESTGELGPLWGTIK ?
Return: 0
